Biological target: human PTP1B (Homo sapiens)
Construct: human PTP1B (amino acid residues 1-321); made in house; host or cells: E. coli BL21(DE3)
Sequence (P18031 1-321): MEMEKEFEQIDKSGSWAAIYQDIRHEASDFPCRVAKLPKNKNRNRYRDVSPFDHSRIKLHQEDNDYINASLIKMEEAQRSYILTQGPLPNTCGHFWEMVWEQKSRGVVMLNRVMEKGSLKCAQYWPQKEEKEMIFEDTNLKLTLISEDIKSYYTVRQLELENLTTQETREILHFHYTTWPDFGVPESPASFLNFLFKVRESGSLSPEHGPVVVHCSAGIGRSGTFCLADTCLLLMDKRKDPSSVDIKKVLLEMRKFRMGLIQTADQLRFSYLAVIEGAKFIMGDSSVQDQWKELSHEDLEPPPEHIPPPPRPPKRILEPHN
Test: PTP1B assay, pNPP hydrolysis, assayed exactly as for PTP1
Type: biochemical
Conditions: Conc 10 uM, Table 2, read-out: PTP1B Inhib PTP1B. % Inhib
Text: The equivalent construct of human PTP1B (amino acid residues 1-321) (cloned from a human placental library), without the GST tag and thrombin cleavage site, was inserted into a pMB replicon and transformed into E. coli BL21(DE3), a strain containing a chromosomal copy of the gene for T7 RNA polymerase under control of a lacUV5 promoter. […]
ENDPOINT LABEL: inhibition at 10 µM (%)
Enter your answer as a number in %; do not include the unit.

Below, each entry is followed by its recorded inhibition at 10 µM result.
COMPOUND	inhibition at 10 µM (%)
CCCCCNC(=O)C(Cc1ccc(OC(COO)COO)cc1)NC(=O)C(Cc1c(F)c(F)c(F)c(F)c1F)NC(=O)OC(C)(C)C (centres unmarked)	25
CCCCCNC(=O)C(Cc1ccc(OC(COO)COO)cc1)NC(=O)C(Cc1ccc(O)cc1)NC(=O)OC(C)(C)C (centres unmarked)	50
CCCCCNC(=O)C(Cc1ccc(OC(COO)COO)cc1)NC(=O)C(Cc1ccccc1)NS(=O)OCc1ccccc1 (centres unmarked)	16
CCCCCNC(=O)C(Cc1ccc(OCCOO)c(COO)c1)NC(=O)C(Cc1ccccc1)NC(=O)Cc1ccc(C)cc1 (centres unmarked)	85
CCCCCNC(=O)C(Cc1ccc(OC(COO)COO)cc1)NC(=O)N(Cc1ccccc1)Cc1ccccc1 (centres unmarked)	65

Could you share which inhibition at 10 µM value was measured for CCCCCNC(=O)C(Cc1ccc(OCC(=O)O)c(OCC(=O)O)c1)NC(=O)C(Cc1ccccc1)NC(=O)OC(C)(C)C (centres unmarked) ?
5

Could you share which inhibition at 10 µM value was measured for CCCCCNC(=O)C(Cc1ccc(OC(COO)COO)cc1)NC(=O)C(CC(N)=O)NC(=O)OC(C)(C)C (centres unmarked) ?
40

Could you share which inhibition at 10 µM value was measured for CCCCCNC(=O)C(Cc1ccc(OCCOO)c(COO)c1)NC(=O)N(Cc1ccccc1)Cc1ccccc1 (centres unmarked) ?
45
